Target: human DGKα (Homo sapiens (Human))
Sequence (P23743 whole entry, looked up): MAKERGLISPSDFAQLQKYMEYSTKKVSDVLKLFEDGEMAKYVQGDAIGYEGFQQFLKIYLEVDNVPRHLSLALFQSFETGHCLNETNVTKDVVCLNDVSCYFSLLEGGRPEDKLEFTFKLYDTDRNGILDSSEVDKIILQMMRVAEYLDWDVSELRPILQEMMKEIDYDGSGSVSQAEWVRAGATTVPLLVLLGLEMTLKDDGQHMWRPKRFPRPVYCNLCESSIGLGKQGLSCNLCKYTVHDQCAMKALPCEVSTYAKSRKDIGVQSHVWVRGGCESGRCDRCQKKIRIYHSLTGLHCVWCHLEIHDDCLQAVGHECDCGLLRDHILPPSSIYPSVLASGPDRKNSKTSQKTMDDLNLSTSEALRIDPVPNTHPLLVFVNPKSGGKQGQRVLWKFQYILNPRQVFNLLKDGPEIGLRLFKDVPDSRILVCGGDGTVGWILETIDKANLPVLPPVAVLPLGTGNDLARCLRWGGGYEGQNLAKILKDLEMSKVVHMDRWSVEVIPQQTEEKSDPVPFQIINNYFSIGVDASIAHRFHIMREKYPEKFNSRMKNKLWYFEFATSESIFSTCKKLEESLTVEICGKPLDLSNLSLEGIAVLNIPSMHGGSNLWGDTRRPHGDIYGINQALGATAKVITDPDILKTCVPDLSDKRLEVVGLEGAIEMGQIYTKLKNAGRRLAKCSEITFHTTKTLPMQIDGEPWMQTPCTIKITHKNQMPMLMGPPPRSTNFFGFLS
Test: DGKα ADPGLO assay (detergent/lipid micelle substrate)
Type: biochemical
Settings: ADPGLO assay; read-out: DGK alpha ADPGLO IC50
The entries below come with measured pIC50 values attached.
By convention, pIC50 is the negative base-10 log of a molar concentration.

Would you please look over these solved cases?
{"molecule": "CC[C@@H]1CN(c2nc(=O)n(C)c3ccc(C#N)nc23)[C@@H](C)CN1C(c1ccc(OC)cc1)C(C)C (stereo partly drawn) [Example 313]", "pIC50": 6.64}
{"molecule": "CC[C@@H]1CN(c2nc(=O)n(C)c3ccc(C#N)nc23)[C@@H](C)CN1C(c1nnc(C2CC2)o1)C(C)C (single isomer, unassigned) [Example 368]", "pIC50": 5.93}

Here's the next entry for you.
Incoming: Give a short answer stating reported pIC50 for CCC1CN(c2nc(=O)n(C)c3ccc(C#N)nc23)[C@@H](C)CN1C(C)c1ccc(C(F)(F)F)c(CN2CCOCC2)c1 (single isomer, unassigned) [Example 350] .
Outgoing: 6.74
